Cited source: patent US6242439A

- measurement_protocol: Cytotoxic effects, tetrazolium salt (MTT) metabolic assay
- Format: cell-based
- condition_context: read-out: TC50 (the source's name)
experimental_endpoint: CC50

Some compounds with known CC50 results, for comparison:
>  <compound>
CN(Cc1ccccc1)C(=O)N1C(=O)C[C@@H]1Cc1ccccc1

>  <CC50>
> 150 µM

$$$$
>  <compound>
CCC(NC(=O)N1C(=O)[C@@H](C)[C@@H]1Cc1ccccc1)c1ccncc1 (single isomer, unassigned) [Entry 206]

>  <CC50>
> 250 µM

$$$$
>  <compound>
CN(Cc1ccc([N+](=O)[O-])cc1)C(=O)N1C(=O)C[C@@H]1Cc1nccs1

>  <CC50>
> 29 µM

$$$$
>  <compound>
CN(Cc1ccc(C(F)(F)F)cc1)C(=O)N1C(=O)C[C@@H]1Cc1nccs1 [Entry 218]

>  <CC50>
178 µM

$$$$
>  <compound>
CCCC(NC(=O)N1C(=O)CC1Cc1ccccc1)c1ccccc1 (centres unmarked)

>  <CC50>
> 250 µM

$$$$

// moving on: another record for CC50
INPUT: Please report the recorded CC50 for `CC[C@@H](NC(=O)N1C(=O)C[C@@H]1CCc1ccccc1)c1ccccc1` .
OUTPUT: > 250 µM
